Tested on: Mycoplasma gallisepticum
Test: MIC, broth-dilution microtiter test, Mycoplasma gallisepticum
Format: cell-based
Settings: Mycoplasma gallisepticum; broth-dilution microtiter
Readout Kind: MIC

Q: Could you tell me which MIC is on file for CCC1OC(=O)CC(O)C(C)C(OC2OC(C)C(O)C(N(C)C)C2O)C(CCOc2ccc(-c3ccccc3)cc2)CC(C)C(=O)C=CC(C)=CC1COC1OC(C)C(O)C(OC)C1OC (stereo not drawn) [Compound 41, 20-DH-20-O-(p-Phenylphenyl)desmycosin] ?
Result: < 0.05 µg/mL

Q: Can you check CCC1OC(=O)CC(O)C(C)C(OC2OC(C)C(O)C(N(C)C)C2O)C(CCOc2ncnc3ccccc23)CC(C)C(=O)C=CC(C)=CC1COC1OC(C)C(O)C(OC)C1OC (stereo not drawn) [Compound 51, 20-DH-20-O-(Quinazolin-4-yl)desmycosin] next?
Result: ≤ 0.048 µg/mL

Q: Also CCC1OC(=O)CC(O)C(C)C(OC2OC(C)C(O)C(N(C)C)C2O)C(CCOc2cccc(Oc3ccccc3)c2)CC(C)C(=O)C=CC(C)=CC1COC1OC(C)C(O)C(OC)C1OC (stereo not drawn) [Compound 48, 20-DH-20-O-(m-Phenoxyphenyl)desmycosin] ?
Result: < 0.05 µg/mL
